Reference for the values: PubChem BioAssay AID2685

# METHOD: qHTS Assay for Lipid Storage Modulators in Drosophila S3 Cells; further: potency means the concentration at half of the fitted maximal effect
# ASSAY_CONTEXT: BODIPY lipid droplet fluorescence, 18-24 h, cells fed with added oleic acid; series mostly up to 46.1 µM
Screen size: about 320,000 compounds; about 2,100 (0.66%) were called active. About 53% were inconclusive and are not listed. Shown is part of a subset that was picked to be rich in actives.
READOUT_NAME: Potency

{"MOLECULE": "O=C(CCN1CCCC1=O)NC1CCCc2c1cnn2-c1ccccc1F (centres undefined)", "RESULT_VALUE": "inactive"}
{"MOLECULE": "COC(=O)c1ccc(-c2nc(O)c(C)s2)cc1", "RESULT_VALUE": "inactive"}
{"MOLECULE": "COc1ccc(C(=O)NC2CCCCCC2)cc1S(=O)(=O)Nc1ccc(Br)cc1", "RESULT_VALUE": "inactive"}
{"MOLECULE": "Cc1ccccc1N1C(=O)C(Cl)=C(N2CCCCCC2)C1=O", "RESULT_VALUE": "inactive"}
{"MOLECULE": "Cc1ccc(-c2cc(C(F)F)n3ncc(C(=O)N4CCc5ccccc5C4)c3n2)cc1", "RESULT_VALUE": "inactive"}
{"MOLECULE": "CC(Sc1ccccc1)C(=O)N1CCN(S(=O)(=O)c2ccccc2)CC1 (centres undefined)", "RESULT_VALUE": "10.3 nM (active)"}

Looking for the measured Potency of O=C(NC1CCCC1)C(c1ccsc1)N(C(=O)Cc1cccs1)c1ccc(F)cc1 (centres undefined) , can you help?
inactive

And CCOC(=O)C1CCN(CC(=O)c2c(C)[nH]c3ccccc23)CC1 ?
inactive

What about COc1ccc(CNC(=O)C(c2ccccc2F)N(C(=O)c2csnn2)C2CC2)cc1 (centres undefined) ?
inactive

Follow-up entry: O=C(Cn1c(CSc2ccccc2)nc2ccccc21)Nc1ccccc1
inactive

What do you get for Cc1cc(C(=O)NC2CCCc3c2cnn3-c2cccc(C)c2C)n(C)n1 (centres undefined) ?
920 nM (active)

Then this molecule: O=C(CN1CCOC1=O)N1CCCC(N2CCN(c3cccc(C(F)(F)F)c3)CC2)C1 (centres undefined)
inactive

Follow-up item: Cc1ccc(S(=O)(=O)N2CCCCC2)cc1NC(=O)COC(=O)Cc1c(F)cccc1Cl
inactive

Thanks! And Cc1ccc(NC(=O)CSc2nnc(-c3ccncc3)s2)cc1 ?
inactive

Do the same for COc1ccc(CNC(=O)C(c2cccc(C)c2)N(C(=O)c2csnn2)C2CC2)cc1 (centres undefined) please
2060 nM (active)

Then CC(=O)c1c(C)[nH]c2ccccc2c1=O ?
inactive

Would you mind doing O=C(Nc1cccc([N+](=O)[O-])c1)C(=O)N1CCCCC1 as well?
inactive

Ok, now COc1cc(-n2c(=O)c3ccccc3n(CC(=O)c3ccc(Br)cc3)c2=O)cc(OC)c1OC
inactive

Same question, COc1cccc(N(CC(=O)NCCSCc2ccc(Cl)cc2)S(C)(=O)=O)c1 this time
inactive

* * *

# METHOD: qHTS Assay for Lipid Storage Modulators in Drosophila S3 Cells;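 on cell number change: cells counted by Cell Tracker Red CMTPX staining in the red channel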
# ASSAY_CONTEXT: BODIPY lipid droplet fluorescence, 18-24 h, cells fed with added oleic acid; measured here: cell count max response
In all, about 320,000 compounds went through this assay and about 2,100 (0.66%) were called active. About 53% were inconclusive and are not listed. Many of the other results were omitted from the sample, so actives are more common in it than they were.
READOUT_NAME: cell number change (%)
Numeric answer only, unit % assumed.

Report cell number change for O=C(CSc1nc2ccccc2s1)Nc1ccc(Cl)c(C(=O)O)c1 please.
18.4

Another: CCOC(=O)CN(C(=O)CSc1nnc(-c2ccncc2)n1CCCOC)c1ccccc1
-3.7

Please answer likewise for CC1NC(=O)c2ccccc2-n2c1nc1cc(F)ccc1c2=O (stereo not given)
0.361

Would you kindly repeat that for Cc1cccc(NC(=O)CS(=O)(=O)c2cn(C)c3ccccc23)c1 ?
-0.98

Now this one: CCOc1ccc(N2CC(C(=O)NCc3nnnn3-c3ccc(C)c(C)c3)CC2=O)cc1 (stereo not given)
12.6

Another compound: COc1ccc(C(=O)/C=C/c2ccccc2)c(OC)c1
16.5

Can you check Clc1ccccc1C1CC(c2ccccc2)=Nc2ccccc2N1 (stereo not given) next?
-20.8

Also, O=S(=O)(Cc1ccccc1)Nc1ccc(S(=O)(=O)N2CCCC2)cc1 please.
-4.32

Now consider C=CCOc1ccc(-c2nc3c(c(=O)[nH]c(=O)n3CCC)n2CCCC)cc1 and answer again.
22.5

And the next one, COc1ccc(-c2nc3c(n2O)CCC/C3=N\O)cc1 ?
4.07

One more compound: COc1ccc(CCNC(=O)CCCN2C(=O)c3ccccc3C2=O)cc1OC
10.1

Try the compound O=[N+]([O-])c1ccc(Oc2ccc(OCc3ccccc3)cc2)nc1
-9.11

What do you get for Cc1ccc(S(=O)(=O)N2CCC(C(=O)NNS(=O)(=O)c3ccc(Cl)cc3)CC2)cc1 ?
4.8

Same question for COc1ccc(CCNC(=O)CN2C(=O)c3ccccc3S2(=O)=O)cc1OC please.
-27.6

Also check COc1ccc(CCNC(=O)CCOc2cc(C)ccc2C)cc1OC
-23.2

* * *

Measured cell number change, listed per entry.
# METHOD: qHTS Assay for Lipid Storage Modulators in Drosophila S3 Cells;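 on cell number change: cells counted by Cell Tracker Red CMTPX staining in the red channel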
# ASSAY_CONTEXT: BODIPY lipid droplet fluorescence, 18-24 h, cells fed with added oleic acid; measured here: cell count max response
The campaign covered roughly 320,000 compounds. About 2,100 (0.66%) were called active. About 53% were inconclusive and are not listed. Shown is part of a subset that was picked to be rich in actives.
Give the number; % is assumed, so skip it.

Answered examples (2):
{"COMPOUND": "O=c1ccc(-c2ccc(S(=O)(=O)N3CCN(c4cccc(Cl)c4)CC3)o2)n[nH]1", "cell number change / %": 7.08}
{"COMPOUND": "COc1ccc(-c2noc(-c3ccccc3C(=O)Nc3cccc(OC)c3)n2)cc1", "cell number change / %": 2.43}

I have this compound here, COC(=O)[C@H](CC(C)C)NC(=O)N1CCCCC1C (stereo partly drawn) , and I need its recorded cell number change.
-11.4

Likewise for CCC(=O)Nc1ccc(S(=O)(=O)c2ccc(NC(=O)CC)cc2)cc1 ?
0.0647

* * *

# METHOD: qHTS Assay for Lipid Storage Modulators in Drosophila S3 Cells;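 on cell number change: cells counted by Cell Tracker Red CMTPX staining in the red channel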
# ASSAY_CONTEXT: BODIPY lipid droplet fluorescence, 18-24 h, cells fed with added oleic acid; measured here: cell count max response
Out of some 320,000 compounds screened, about 2,100 (0.66%) were called active. Another 53% or so got no clear call; they are omitted. For the sample, actives were picked, then their nearest neighbours and some compounds at random.
READOUT_NAME: cell number change (%)
Please respond with the number in % and leave the unit unwritten.

{"LINE_NOTATION": "Nc1c(C(=O)Nc2ccc(S(=O)(=O)N3CCCC3)cc2)sc2nc3cc4c(cc3cc12)CCC4", "RESULT_VALUE": 6.36}
{"LINE_NOTATION": "CCOC(=O)Cc1csc(NC(=O)/C=C/c2ccccc2Cl)n1", "RESULT_VALUE": -1.33}
{"LINE_NOTATION": "COc1ccc(C)cc1NC(=O)c1ccccc1NS(=O)(=O)c1cccc2cccnc12", "RESULT_VALUE": -4.79}
{"LINE_NOTATION": "CCc1noc(C)c1C(=O)Nc1ccc(F)c(F)c1F", "RESULT_VALUE": -3.41}

Continue with the compound presented below.
Please give the measured cell number change for this compound: Cc1cc(Cl)c2oc(C(=O)N(C)CCCCN3CCOCC3)c(C)c2c1
-10.7

* * *

# METHOD: qHTS Assay for Lipid Storage Modulators in Drosophila S3 Cells; further: potency means the concentration at half of the fitted maximal effect
# ASSAY_CONTEXT: BODIPY lipid droplet fluorescence, 18-24 h, cells fed with added oleic acid; series mostly up to 46.1 µM
The whole screen tested about 320,000 compounds, of which about 2,100 (0.66%) were called active. Roughly 53% stayed inconclusive and do not appear here. Many of the other results were omitted from the sample, so actives are more common in it than they were.
READOUT_NAME: Potency

In the examples that follow, each entry is paired with its recorded Potency.
{"COMPOUND": "O=C(/C=C/c1ccc(F)cc1)N1CCN(c2ncccn2)CC1", "READOUT_NAME": "Potency", "RESULT_VALUE": "inactive"}
{"COMPOUND": "CC(C)(C)c1cc(N2CCOCC2)n2ncc(-c3ccccc3)c2n1", "READOUT_NAME": "Potency", "RESULT_VALUE": "inactive"}
{"COMPOUND": "N#Cc1ccc(OCC(=O)N/N=C/C2CC=CCC2)cc1 (centres undefined)", "READOUT_NAME": "Potency", "RESULT_VALUE": "inactive"}
{"COMPOUND": "CC1=CC(=Nc2c(C)n(C)n(-c3ccccc3)c2=O)C=CC1=O", "READOUT_NAME": "Potency", "RESULT_VALUE": "inactive"}
{"COMPOUND": "O=C(Nc1ccc(Cl)cc1)NN1CC(=O)N(c2cccc(C(F)(F)F)c2)CC1=O", "READOUT_NAME": "Potency", "RESULT_VALUE": "inactive"}
{"COMPOUND": "Cc1onc(-c2c(F)cccc2Cl)c1C(=O)ONC(=O)c1ccccc1", "READOUT_NAME": "Potency", "RESULT_VALUE": "inactive"}
{"COMPOUND": "CCN(CC)C(=O)CSc1nnc(-c2ccco2)n1Cc1ccco1", "READOUT_NAME": "Potency", "RESULT_VALUE": "inactive"}
{"COMPOUND": "O=C(CN1C(=O)NC2(CCCCC2)C1=O)Nc1cccc(S(=O)(=O)N2CCOCC2)c1", "READOUT_NAME": "Potency", "RESULT_VALUE": "inactive"}

Which measured Potency value corresponds to CCOCCCN1CN(S(=O)(=O)c2ccc(Cl)cc2)c2nc3ccccc3nc21 ?
inactive

What would you report for COCCNC(=O)CC(NS(=O)(=O)c1ccc(NC(C)=O)cc1)C(C)C (centres undefined) ?
5.8 µM (active)
